- assay-notes: Photostationary state composition (E/Z ratios) by 1H NMR and UV–vis after irradiation
- Format: physicochemical
- applied-conditions: Tris/DMSO 10%, after 370 nm irradiation
Let's look at some compounds and their measured Z/E PSS370.

>>> print(df.to_string())
                            compound_smiles  result
0  NCCOc1ccc(/N=N/c2ccc(S[C@@H]3O[C@H](CO)[C@H](O)[C@H](O)[C@H]3O)cc2)cc1    99/1

I am curious: what Z/E PSS370 value has been reported for `NCCOc1ccc(/N=N/c2ccccc2S[C@@H]2O[C@H](CO)[C@H](O)[C@H](O)[C@H]2O)cc1` ? 92/8

I am curious: what Z/E PSS370 value has been reported for `NCCOc1cccc(/N=N/c2cccc(O[C@@H]3O[C@H](CO)[C@H](O)[C@H](O)[C@H]3O)c2)c1` ? 87/13

I am curious: what Z/E PSS370 value has been reported for `NCCOc1ccc(/N=N/c2cccc(S[C@@H]3O[C@H](CO)[C@H](O)[C@H](O)[C@H]3O)c2)cc1` ? 99/1
